Target: T1, Gal80 (UniProt P04387 1-435, limits assumed)
T1 construct: Cy3/Cy5 labelled on arrays, immobilised for SPR and ELISA
T1 sequence (looked up): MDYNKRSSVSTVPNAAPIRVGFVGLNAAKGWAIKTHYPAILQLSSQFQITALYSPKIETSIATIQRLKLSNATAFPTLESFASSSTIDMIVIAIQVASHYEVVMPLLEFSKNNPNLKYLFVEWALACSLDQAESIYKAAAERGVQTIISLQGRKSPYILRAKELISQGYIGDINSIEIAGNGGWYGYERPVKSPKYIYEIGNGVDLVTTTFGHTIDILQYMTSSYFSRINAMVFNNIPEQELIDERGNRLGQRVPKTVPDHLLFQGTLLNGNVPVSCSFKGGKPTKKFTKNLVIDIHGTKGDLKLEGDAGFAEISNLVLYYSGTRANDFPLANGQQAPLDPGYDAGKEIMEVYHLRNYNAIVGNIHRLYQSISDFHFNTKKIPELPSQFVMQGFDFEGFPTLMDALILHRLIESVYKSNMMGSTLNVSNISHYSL
Assay: SPR, gal80 immobilised on the chip; Kd from on and off rates
Please provide measured Kd for the entries that follow.
Just the number please, in nM, no unit attached.

### Prompt Annotate the binder GTEKGTSGWLKTGSC (C-terminal Cys joined through SMCC to the DNA linker, also called BP1 alone conjugated to the double-stranded DNA linker) [BP1 on dsDNA] with its measured Kd.
### Response 482

### Prompt Provide one value: measured Kd of EGEWTEGKLSLRGSC (C-terminal Cys joined through SMCC to the DNA linker, also called BP2 alone conjugated to the double-stranded DNA linker) [BP2 on dsDNA]
### Response 982
